pIC50 reference
- TARGET ENTITY: T1, HLA-DRB3 molecule (DRB3*0101) (human)
- T1 construct: HLA class II heterodimer
- PROTOCOL DETAILS: competitive ELISA, tracer LOL 191-210
pIC50: −log10 of the molar value.

# BINDER, pIC50
data = [
    ("FEELTLGEFLKLDRE (synthetic 15-mer) [survivin peptide 93-107]", 4.35),
    ("KQFEELTLGEFLKLD (synthetic 15-mer) [survivin peptide 91-105]", 4.52),
    ("PAWQPFLKDHRISTF (synthetic 15-mer) [survivin peptide 8-22]", 5.06),
    ("KELEGWEPDDDPIEE (synthetic 15-mer) [survivin peptide 62-76]", 4.54),
    ("PDLAQCFFCFKELEG (synthetic 15-mer) [survivin peptide 52-66]", 4.90),
    ("AGFIHCPTENEPDLA (synthetic 15-mer) [survivin peptide 41-55]", 5.00),
    ("QCFFCFKELEGWEPD (synthetic 15-mer) [survivin peptide 56-70]", 4.92),
]
